Kindly supply the reported activity at 10 µM values for the records listed here.
Biological target: CYP3A4 (Homo sapiens)
Sequence (P08684 whole entry): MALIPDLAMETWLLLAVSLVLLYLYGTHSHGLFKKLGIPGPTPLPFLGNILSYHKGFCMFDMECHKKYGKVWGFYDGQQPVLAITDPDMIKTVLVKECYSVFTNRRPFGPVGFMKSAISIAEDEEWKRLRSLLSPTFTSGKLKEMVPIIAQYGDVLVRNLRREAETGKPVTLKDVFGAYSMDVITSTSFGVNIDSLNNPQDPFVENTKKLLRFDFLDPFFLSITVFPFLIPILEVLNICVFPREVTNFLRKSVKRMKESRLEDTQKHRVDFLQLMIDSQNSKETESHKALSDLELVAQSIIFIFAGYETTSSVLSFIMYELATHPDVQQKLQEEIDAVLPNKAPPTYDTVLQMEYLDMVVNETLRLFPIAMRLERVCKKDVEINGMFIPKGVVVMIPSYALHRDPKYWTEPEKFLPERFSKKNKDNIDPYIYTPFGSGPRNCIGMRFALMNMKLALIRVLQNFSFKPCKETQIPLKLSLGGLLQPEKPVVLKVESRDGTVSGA
Experiment: Inhibition of recombinant human CYP3A4 assessed as remaining activity at 10 uM preincubated for 5 mins before substrate addition by Vivid fluorescence assay
Assay type: ADME
Details: read-out: Activity
Numbers only, in %.

• COc1ccc(-n2cnc3c(-c4ccccc4C)csc3c2=O)cc1 = 47.2
• C#CCNc1ccnc2sc3c(=O)n(-c4ccc(OC)cc4)cnc3c12 = 46.8
• COc1ccc(-n2cnc3c(-c4ccccc4F)csc3c2=O)cc1 = 44.8

IN: Give the measured activity at 10 µM of COc1ccc(-n2cnc3c(-c4ccccc4)csc3c2=O)cc1 .
OUT: 200

* * *

Test: AUC (0 to infinity) in Sprague-Dawley rat at 10 mg/kg, iv
Assay type: ADME, organism-based
Set-up: time infinity, dose 10 mg/kg, route intravenous
Settings: plasma
MEASUREMENT_KIND: AUC(0-inf) (ng·h/mL)
Answers are plain numbers, in ng·h/mL.

IN: Which AUC(0-inf) is reported for this molecule? COc1ccc(-n2cnc3c(-c4ccccc4C)csc3c2=O)cc1
OUT: 9070

* * *

Assay: Clearance in Sprague-Dawley rat at 10 mg/kg, iv
Format: ADME, organism-based
Parameters: dose 10 mg/kg, route intravenous
Conditions: in vivo
MEASUREMENT_KIND: clearance

IN: # input compound: COc1ccc(-n2cnc3c(-c4ccccc4C)csc3c2=O)cc1 ; wanted: its clearance
OUT: 23.4 mL/min/kg

* * *

Assign selectivity ratio to each entry below.
Tested on: hERG versus mGluR1
Assay: Therapeutic index, ratio of IC50 for human ERG expressed in CHO-K1 cells to IC50 for mGluR1 (unknown origin) expressed in Chem-3 cells
Format: cell-based
Conditions: read-out: Ratio IC50

• COc1ccc(-n2cnc3c(-c4ccccc4F)csc3c2=O)cc1 = > 200

IN: Can you look up the measured selectivity ratio of COc1ccc(-n2cnc3c(-c4ccccc4C)csc3c2=O)cc1 for me?
OUT: > 200

* * *

Target: Metabotropic glutamate receptor 1 (Homo sapiens)
Assay: Antagonist activity at mGluR1 (unknown origin) expressed in Chem-3 cells assessed as inhibition of glutamate-induced increased intracellular calcium ion level at 10 uM after 18 hrs by fluorescence-based FDSS6000 assay
Type: functional, cell-based
# inhibition >= 90% gives Yes, anything below gives No

• COc1ccc(-n2cnc3c(-c4ccc(Cl)cc4)csc3c2=O)cc1 = No
• Cc1cccc(-n2cnc3c(-c4ccccc4)csc3c2=O)c1 = Yes
• N#Cc1ccc(-n2cnc3c(-c4ccccc4)csc3c2=O)cc1 = No
• COc1ccc(-n2cnc3c(-c4ccc(F)cc4)csc3c2=O)cc1 = No
• O=c1c2scc(-c3ccccc3)c2ncn1-c1ccc(F)cc1 = Yes
• COc1ccc(-n2cnc3c(-c4cccc(F)c4)csc3c2=O)cc1 = No

IN: Check the entry COc1ccc(-n2cnc3c(-c4ccc(C)cc4)csc3c2=O)cc1 : does inhibition equal or exceed 90%?
OUT: No

* * *

What inhibition was measured for each of the following?
Target: Metabotropic glutamate receptor 1 (Homo sapiens)
Assay: Antagonist activity at mGluR1 (unknown origin) expressed in Chem-3 cells assessed as inhibition of glutamate-induced increased intracellular calcium ion level at 1 uM after 18 hrs by fluorescence-based FDSS6000 assay
Type: functional, cell-based
Numbers only, in %.

* O=c1c2scc(-c3ccccc3)c2ncn1-c1ccc(F)cc1 | 82.6
* COc1ccc(-n2cnc3c(-c4cccc(OC)c4)csc3c2=O)cc1 | 71.8
* N#Cc1ccc(-n2cnc3c(-c4ccccc4)csc3c2=O)cc1 | 18.8
* COc1ccc(-n2cnc3c(-c4ccccc4)csc3c2=O)cc1 | 87

// input: 6 molecules below; output: inhibition for each
1. Cc1ccc(-n2cnc3c(-c4ccccc4)csc3c2=O)cc1
2. C=Cc1ccc(-n2cnc3c(-c4ccccc4)csc3c2=O)cc1
3. N#Cc1cccc(-n2cnc3c(-c4ccccc4)csc3c2=O)c1
4. O=c1c2scc(-c3ccccc3)c2ncn1-c1cccc(F)c1
5. COc1cccc(-n2cnc3c(-c4ccccc4)csc3c2=O)c1
6. C=Cc1cccc(-n2cnc3c(-c4ccccc4)csc3c2=O)c1

OUT:
[84.2, 82.8, 8.17, 90.6, 29.3, 92.4]

Items follow; give inhibition for each.
1. COc1ccccc1-n1cnc2c(-c3ccccc3)csc2c1=O
2. Cc1cccc(-n2cnc3c(-c4ccccc4)csc3c2=O)c1

OUT:
1. 16.1
2. 86.7

Provide inhibition values for the following items, in order.
1. O=c1c2scc(-c3ccccc3)c2ncn1-c1ccccc1Cl
2. COc1ccc(-n2cnc3c(-c4ccccc4Cl)csc3c2=O)cc1
3. COc1ccc(-n2cnc3c(-c4ccccc4OC)csc3c2=O)cc1
4. COc1ccc(-c2csc3c(=O)n(-c4ccc(OC)cc4)cnc23)cc1
5. COc1ccc(-n2cnc3c(-c4ccccc4F)csc3c2=O)cc1
6. COc1ccc(-n2cnc3c(-c4ccccc4C)csc3c2=O)cc1
7. COc1ccc(-n2cnc3c(-c4cccc(F)c4)csc3c2=O)cc1
8. O=c1c2scc(-c3ccccc3)c2ncn1-c1ccccc1F

OUT:
[72.3, 84.2, 53.2, 25.4, 90.9, 85.3, 53, 65]

Hey, can you go through the list below and give me inhibition for every item?
1. C#CCNc1ccnc2sc3c(=O)n(-c4ccc(OC)cc4)cnc3c12
2. COc1ccc(-n2cnc3c(-c4cccc(C)c4)csc3c2=O)cc1
3. O=c1c2scc(-c3ccccc3)c2ncn1-c1ccccc1
4. O=c1c2scc(-c3ccccc3)c2ncn1-c1ccc([N+](=O)[O-])cc1

OUT:
1: 93.4; 2: 78; 3: 84; 4: 14.7

IN: GET /values?readout=inhibition&item= COc1ccc(-n2cnc3c(-c4ccc(Cl)cc4)csc3c2=O)cc1
OUT: 49.1

* * *

Experiment: Ratio of drug uptake in brain to plasma of Sprague-Dawley rat at 10 mg/kg, po at 2 hrs
Assay type: ADME, organism-based
Parameters: dose 10 mg/kg, route oral
Conditions: read-out: BPR
MEASUREMENT_KIND: Kp at 2 h
Answers are plain numbers.

IN: Please look up its Kp at 2 h: COc1ccc(-n2cnc3c(-c4ccccc4C)csc3c2=O)cc1
OUT: 0.92

* * *

Test: Metabolic stability in human liver microsomes assessed as compound remaining at 1 uM after 30 mins
Type: ADME
Details: read-out: Stability
MEASUREMENT_KIND: remaining at 0.5 h, 1 µM (%)
Give bare numbers, in %.

* C#CCNc1ccnc2sc3c(=O)n(-c4ccc(OC)cc4)cnc3c12 | 12.1
* COc1ccc(-n2cnc3c(-c4ccccc4)csc3c2=O)cc1 | 24.4

I'm hoping you can list remaining at 0.5 h, 1 µM for every compound here, please.
1. COc1ccc(-n2cnc3c(-c4ccccc4C)csc3c2=O)cc1
2. COc1ccc(-n2cnc3c(-c4ccccc4F)csc3c2=O)cc1

OUT:
[50.1, 17.8]

* * *

Molecular target: CYP1A2 (Homo sapiens, UniProt P05177)
Sequence (P05177 whole entry): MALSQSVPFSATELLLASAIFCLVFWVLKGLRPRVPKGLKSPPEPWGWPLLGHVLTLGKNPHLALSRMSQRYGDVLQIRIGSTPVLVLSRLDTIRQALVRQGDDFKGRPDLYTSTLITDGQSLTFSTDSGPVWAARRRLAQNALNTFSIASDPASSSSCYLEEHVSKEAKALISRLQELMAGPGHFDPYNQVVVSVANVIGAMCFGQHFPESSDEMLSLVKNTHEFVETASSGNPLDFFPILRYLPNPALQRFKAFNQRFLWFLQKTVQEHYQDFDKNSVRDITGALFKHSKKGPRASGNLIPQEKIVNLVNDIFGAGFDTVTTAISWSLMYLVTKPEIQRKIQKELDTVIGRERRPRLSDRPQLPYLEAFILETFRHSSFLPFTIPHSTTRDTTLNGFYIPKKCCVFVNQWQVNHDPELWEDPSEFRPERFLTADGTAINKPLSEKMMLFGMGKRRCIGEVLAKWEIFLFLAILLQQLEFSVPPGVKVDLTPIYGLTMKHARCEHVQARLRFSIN
Assay: Inhibition of recombinant human CYP1A2 assessed as remaining activity at 10 uM preincubated for 5 mins before substrate addition by Vivid fluorescence assay
Format: ADME
Conditions: read-out: Activity
For each record, write down the corresponding activity at 10 µM.
The reply should read as a number followed by its unit.

Respectfully, I request activity at 10 µM for each entry included below.
1. COc1ccc(-n2cnc3c(-c4ccccc4F)csc3c2=O)cc1
2. C#CCNc1ccnc2sc3c(=O)n(-c4ccc(OC)cc4)cnc3c12
3. COc1ccc(-n2cnc3c(-c4ccccc4)csc3c2=O)cc1
4. COc1ccc(-n2cnc3c(-c4ccccc4C)csc3c2=O)cc1

OUT:
["148%", "114%", "91%", "104%"]

* * *

Assay: Cmax in Sprague-Dawley rat at 10 mg/kg, po
Assay type: ADME, organism-based
Design: dose 10 mg/kg, route oral
Settings: in vivo
MEASUREMENT_KIND: Cmax (ng/mL)
Answers are plain numbers, in ng/mL.

IN: What value of measured Cmax is listed for COc1ccc(-n2cnc3c(-c4ccccc4C)csc3c2=O)cc1 ?
OUT: 190

* * *

Please go through the items and note down their inhibition.
Biological target: Metabotropic glutamate receptor 1 (Homo sapiens, UniProt Q13255)
Sequence (Q13255 19-1194 limits assumed): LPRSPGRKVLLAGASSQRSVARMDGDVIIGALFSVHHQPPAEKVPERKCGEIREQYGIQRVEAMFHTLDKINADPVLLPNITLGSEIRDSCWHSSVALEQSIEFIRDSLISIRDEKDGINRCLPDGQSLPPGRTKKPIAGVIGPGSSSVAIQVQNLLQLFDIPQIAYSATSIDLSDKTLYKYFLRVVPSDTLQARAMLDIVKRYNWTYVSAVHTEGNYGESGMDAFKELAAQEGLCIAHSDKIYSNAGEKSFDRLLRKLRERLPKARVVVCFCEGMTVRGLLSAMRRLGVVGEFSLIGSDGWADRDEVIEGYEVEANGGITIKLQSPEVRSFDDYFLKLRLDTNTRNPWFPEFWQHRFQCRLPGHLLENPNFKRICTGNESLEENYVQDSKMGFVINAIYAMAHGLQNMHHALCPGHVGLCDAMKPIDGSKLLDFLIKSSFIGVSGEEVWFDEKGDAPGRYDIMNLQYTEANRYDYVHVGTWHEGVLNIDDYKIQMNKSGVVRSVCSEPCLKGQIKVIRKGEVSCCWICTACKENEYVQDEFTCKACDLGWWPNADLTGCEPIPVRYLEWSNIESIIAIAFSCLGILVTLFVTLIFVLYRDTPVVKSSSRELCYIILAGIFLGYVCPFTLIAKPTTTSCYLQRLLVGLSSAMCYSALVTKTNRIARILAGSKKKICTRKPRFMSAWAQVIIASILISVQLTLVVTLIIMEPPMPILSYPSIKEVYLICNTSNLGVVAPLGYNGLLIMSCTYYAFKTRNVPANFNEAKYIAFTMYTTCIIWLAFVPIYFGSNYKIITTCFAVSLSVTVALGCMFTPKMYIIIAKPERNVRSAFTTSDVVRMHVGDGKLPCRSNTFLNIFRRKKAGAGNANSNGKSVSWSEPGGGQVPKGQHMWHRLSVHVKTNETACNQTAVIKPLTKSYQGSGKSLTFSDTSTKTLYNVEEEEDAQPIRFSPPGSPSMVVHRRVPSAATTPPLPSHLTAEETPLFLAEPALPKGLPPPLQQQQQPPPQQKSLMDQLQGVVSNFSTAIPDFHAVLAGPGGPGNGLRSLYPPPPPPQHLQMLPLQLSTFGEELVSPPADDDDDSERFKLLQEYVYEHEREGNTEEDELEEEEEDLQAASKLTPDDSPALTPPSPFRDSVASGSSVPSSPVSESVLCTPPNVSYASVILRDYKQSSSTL
Assay: Antagonist activity at mGluR1 (unknown origin) expressed in Chem-3 cells assessed as inhibition of glutamate-induced increased intracellular calcium ion level at 10 uM after 18 hrs by fluorescence-based FDSS6000 assay
Format: functional, cell-based
One number for each entry, in %.

- COc1ccc(-n2cnc3c(-c4cccc(OC)c4)csc3c2=O)cc1: 89.2
- O=c1c2scc(-c3ccccc3)c2ncn1-c1cccc(F)c1: 91.3
- O=c1c2scc(-c3ccccc3)c2ncn1-c1ccc(Cl)cc1: 77.7

Dear colleague, could you send me inhibition for each of the items below? Thanks.
1. Cc1ccc(-n2cnc3c(-c4ccccc4)csc3c2=O)cc1
2. COc1ccccc1-n1cnc2c(-c3ccccc3)csc2c1=O
3. O=c1c2scc(-c3ccccc3)c2ncn1-c1ccccc1Cl
4. O=c1c2scc(-c3ccccc3)c2ncn1-c1ccccc1F
5. COc1cccc(-n2cnc3c(-c4ccccc4)csc3c2=O)c1
6. C#CCNc1ccnc2sc3c(=O)n(-c4ccc(OC)cc4)cnc3c12
7. COc1ccc(-n2cnc3c(-c4ccccc4)csc3c2=O)cc1

OUT:
97.3
22.8
93.3
92.9
76.4
92
94

IN: Return reported inhibition; argument: C=Cc1ccc(-n2cnc3c(-c4ccccc4)csc3c2=O)cc1
OUT: 93
